Biological target: MK-801 binding site of the N-methyl-D-aspartate receptor (NMDAR)
Test: NMDAR radioligand binding with [3H]MK-801, Method A
Parameters: species or system Wistar rat
Conditions: MK-801 site, Method A, Wistar rat brain (minus cerebellum), 5.0 nM [3H]MK-801; read-out: NMDAR Ki ± SEM
Method: Radioligand Binding—Method A. Affinity of the test compounds for NMDAR was determined in radioligand binding experiments with [^3H]MK-801 by Eurofins Panlabs, Inc., using methods adapted from the literature (Javitt et al. 1987; Reynolds et al. 1989) and under the conditions described in Table 12.

| Molecule | System Name | Ki, µM |
| --- | --- | --- |
| CNC1(c2ccccc2OC)CCCCC1=O (racemic) [Compound 4rac] | MK-801 binding site of the N-methyl-D-aspartate receptor (NMDAR) | 35 |
| CN[C@]1(c2ccccc2F)CCCCC1=O [Compound 35S] | MK-801 binding site of the N-methyl-D-aspartate receptor (NMDAR) | 0.79 |
| NC1(c2ccccc2Cl)CCCCC1=O (racemic) [Compound 78rac] | MK-801 binding site of the N-methyl-D-aspartate receptor (NMDAR) | 4 |
